Listing of recorded IC50 by entry.
tested on: UEA-1 binding sites on Caco-2 cell membrane preparations; assay: Two tier competition assay: compound incubated alone with membranes, biotinylated UEA-1 added in next step; set-up: species or system human; conditions: Table 8, galloyl constructs; read-out: IC 50 (uM) 2nd tier
Non-standard residues stand in square brackets, D forms with d. Residues, ends and D or L forms follow the SMILES beside them. *: point of attachment. Galloyl = O=C(c1cc(O)c(O)c(O)c1)*; Dap = NC[C@H](N)C(=O)O

| COMPOUND | IC50 |
| --- | --- |
| NC(=O)C(Cc1ccc(NC(=O)c2cc(O)c(O)c(O)c2)cc1)NC(=O)C(Cc1ccc(NC(=O)c2cc(O)c(O)c(O)c2)cc1)NC(=O)c1cc(O)c(O)c(O)c1 (stereo not shown) | 5 µM |
| CC(=O)N[C@H](CCCCNC(=O)c1cc(O)c(O)c(O)c1)C(=O)N[C@H](CCCCNC(=O)c1cc(O)c(O)c(O)c1)C(=O)N[C@H](CCCCNC(=O)c1cc(O)c(O)c(O)c1)C(=O)N[C@H](CCCCNC(=O)c1cc(O)c(O)c(O)c1)C(=O)N[C@H](CCCCNC(=O)c1cc(O)c(O)c(O)c1)C(=O)N[C@H](CCCCNC(=O)c1cc(O)c(O)c(O)c1)C(N)=O | 1 µM |
| NC(=O)C(CNC(=O)c1cc(O)c(O)c(O)c1)NC(=O)C(CNC(=O)c1cc(O)c(O)c(O)c1)NC(=O)c1cc(O)c(O)c(O)c1 (stereo not shown) | 0.8 µM |
| NC(=O)C(CNC(=O)C(CNC(=O)c1cc(O)c(O)c(O)c1)NC(=O)c1cc(O)c(O)c(O)c1)NC(=O)C(CNC(=O)c1cc(O)c(O)c(O)c1)NC(=O)c1cc(O)c(O)c(O)c1 (stereo not shown) | 1 µM |
| NC(=O)C(CCNC(=O)c1cc(O)c(O)c(O)c1)NC(=O)C(CCNC(=O)c1cc(O)c(O)c(O)c1)NC(=O)C(CCNC(=O)c1cc(O)c(O)c(O)c1)NC(=O)c1cc(O)c(O)c(O)c1 (stereo not shown) | 1 µM |
| NC(=O)[C@H](CNC(=O)c1cc(O)c(O)c(O)c1)NC(=O)c1cc(O)c(O)c(O)c1 | 2 µM |
| CC(=O)NC(CCCCNC(=O)c1cc(O)c(O)c(O)c1)C(N)=O (stereo not shown) | 160 µM |
| NC(=O)C(CCCCNC(=O)c1cc(O)c(O)c(O)c1)NC(=O)C(CCCCNC(=O)c1cc(O)c(O)c(O)c1)NC(=O)C(CCCCNC(=O)c1cc(O)c(O)c(O)c1)NC(=O)c1cc(O)c(O)c(O)c1 (stereo not shown) | 0.6 µM |
| CC(=O)N[C@@H](CNC(=O)c1cc(O)c(O)c(O)c1)C(=O)N[C@@H](CNC(=O)c1cc(O)c(O)c(O)c1)C(=O)N[C@@H](CNC(=O)c1cc(O)c(O)c(O)c1)C(=O)N[C@@H](CNC(=O)c1cc(O)c(O)c(O)c1)C(N)=O [MSI 34 #21] (Ac-[Dap](Galloyl)[Dap](Galloyl)[Dap](Galloyl)[Dap](Galloyl)-NH2) | 1 µM |
| NC(=O)C(CCCCNC(=O)c1cc(O)c(O)c(O)c1)NC(=O)C(CCCCNC(=O)c1cc(O)c(O)c(O)c1)NC(=O)c1cc(O)c(O)c(O)c1 (stereo not shown) | 7 µM |
| NC(=O)C(CNC(=O)c1cc(O)c(O)c(O)c1)NC(=O)C(CNC(=O)c1cc(O)c(O)c(O)c1)NC(=O)C(CNC(=O)c1cc(O)c(O)c(O)c1)NC(=O)c1cc(O)c(O)c(O)c1 (stereo not shown) | 0.8 µM |
| CC(=O)NC(CCCCNC(=O)c1cc(O)c(O)c(O)c1)C(=O)NC(CCCCNC(=O)c1cc(O)c(O)c(O)c1)C(N)=O (stereo not shown) | 77 µM |
| NC(=O)C(CCNC(=O)C(CCNC(=O)c1cc(O)c(O)c(O)c1)NC(=O)c1cc(O)c(O)c(O)c1)NC(=O)C(CCNC(=O)c1cc(O)c(O)c(O)c1)NC(=O)c1cc(O)c(O)c(O)c1 (stereo not shown) | 1 µM |
